- Test system: Aspergillus fumigatus
- Protocol Summary: Antimicrobial activity against Aspergillus fumigatus 7544 after 48 hrs by serial dilution method
- Format: functional
- Condition Details: Aspergillus fumigatus, 7544, 48 h
Endpoint Label: MIC (µg/mL)
API: value field is a number in µg/mL; no unit string.

- Cc1ncc(-c2nc3c(s2)CN([C@H](C)[C@](O)(Cn2cncn2)c2ccc(F)cc2F)CC3)cn1: 16
- C[C@@H](N1CCc2nc(-c3ccc(C#N)cc3)sc2C1)[C@](O)(Cn1cncn1)c1ccc(F)cc1F: 16
- C[C@@H](N1CCc2nc(-c3cccc(C#N)c3)sc2C1)[C@](O)(Cn1cncn1)c1ccc(F)cc1F: 16

Query: Bench note: what MIC did C[C@@H](N1CCn2nc(-c3ccc(C#N)cc3)nc2C1)[C@](O)(Cn1cncn1)c1ccc(F)cc1F show?
Reply: 64

Query: Another: C[C@@H](N1CCc2cc(-c3ccc(C#N)nc3)sc2C1)[C@](O)(Cn1cncn1)c1ccc(F)cc1F
Reply: 32

Query: Another: C[C@@H](N1CCn2nc(-c3ccc(C(F)(F)F)cc3)nc2C1)[C@](O)(Cn1cncn1)c1ccc(F)cc1F
Reply: 16

Query: Another: COc1ccc(-c2nc3n(n2)CCN([C@H](C)[C@](O)(Cn2cncn2)c2ccc(F)cc2F)C3)cn1
Reply: 32
